Source listed as the RepoRT retention time repository (doi:10.1016/j.foodchem.2021.129757).

Provide the recorded LC retention time for the entries that follow.
Experiment: RP, Waters ACQUITY UPLC BEH Shield RP18, 150 × 2.1 mm, 1.7 µm, 40 °C, 0.4 mL/min, estimated dead time 0.83 min; A: water + 0.1% formic acid, pH 3; B: acetonitrile + 0.1% formic acid, pH 3; gradient (min/%B) 0/0 30/50 31/100 37/100 37.1/0
Details: stereoisomer not certain
State just the number; it will be interpreted in min.

Determine its reported LC retention time: COc1cc(-c2oc3cc(O)cc(O)c3c(=O)c2O)ccc1O
24

Please list LC retention time recorded for the compound O=C(O)CCc1ccc(O)cc1
6.46

Please report the measured LC retention time for O=c1cc(-c2ccc(O)cc2)oc2cc(OC3OC(CO)C(O)C(O)C3O)cc(O)c12 (stereo not drawn) [Apigenin 7-O-glucoside]
14.3

Read off the recorded LC retention time for O=C(CCc1ccc(O)cc1)c1c(O)cc(O)cc1OC1OC(CO)C(O)C(O)C1O (stereo not drawn)
14.2

Supply reported LC retention time belonging to this compound: O=C(O)c1cc(O)ccc1O
6.28

Identify LC retention time associated with the compound O=c1cc(-c2ccc(O)c(O)c2)oc2cc(OC3OC(CO)C(O)C(O)C3O)cc(O)c12 (stereo not drawn) [Luteolin 7-glucoside]
12.4

Could you please provide reported LC retention time for CC1OC(OCC2OC(Oc3c(-c4ccc(O)c(O)c4)oc4cc(O)cc(O)c4c3=O)C(O)C(O)C2O)C(O)C(O)C1O (stereo not drawn) ? Thanks!
12.6

Provide only the value of recorded LC retention time for CC1=C2C(=O)C=C(COC(=O)C(=O)O)C2C2OC(=O)C(C)C2C(OC(=O)Cc2ccc(O)cc2)C1 (stereo not drawn) [Dihydrolactucopicrin-15-oxalate]
17.3

* * *

Test: RP, 150 × 2.1 mm, 2.6 µm, 40 °C, 0.35 mL/min, estimated dead time 0.94 min; A: water + 0.1% formic acid, pH 3; B: acetonitrile + 0.1% formic acid, pH 3; gradient (min/%B) 0/0 1/0 12.5/100 14/100 14.2/0 15/0
Conditions: stereoisomer not certain
assay endpoint: LC retention time (min)
Write the answer as a number in min, unit excluded.

Give me measured LC retention time, please, for this compound: CC(=O)NCCc1c[nH]c2ccc(O)cc12
4.69

Give the value of LC retention time reported for the following: COc1cc2c(CCNC(C)=O)c[nH]c2cc1O [6-Hydroxymelatonin]
5.14

Please look at this compound and report its LC retention time: OCCc1c[nH]c2ccccc12
6.45

Kindly indicate its recorded LC retention time. Item: CCC=CCC1C(=O)CCC1CC(=O)OC (stereo not given) [Methyl jasmonate]
7.64

Look up and report measured LC retention time for this entry: COc1cc(-c2oc3cc(O)cc(O)c3c(=O)c2O)ccc1OC1OC(C(=O)O)C(O)C(O)C1O (stereo not given) [Isorhamnetin 4'-O-glucuronide]
6.03

Tell me measured LC retention time for COc1cc(-c2oc3cc(O)cc(O)c3c(=O)c2OC2OC(CO)C(O)C(O)C2O)cc(OC)c1O (stereo not given) [Syringetin-3-glucoside] please.
6

# return recorded LC retention time for input O=C(C=Cc1ccc(O)c(O)c1)OC1C(O)CC(O)(C(=O)O)CC1O (stereo not given)
4.63

Input O=c1ccc2cc(OC3OC(CO)C(O)C(O)C3O)c(O)cc2o1 (stereo not given) , output reported LC retention time.
4.11

For the compound O=C(O)Cc1ccc(O)c(O)c1 [3,4-Dihydroxyphenylacetic acid] , report LC retention time.
7.07

Indicate its recorded LC retention time; the compound in question is NCCc1c[nH]c2ccc(O)cc12
1.54

* * *

Give measured LC retention time for each item. Keep answers brief.
Assay: Other, Phenomenex Kinetex PFP, 100 × 4.6 mm, 5 µm, 45 °C, 0.6 mL/min, estimated dead time 1.8 min; A: water + 0.1% trifluoroacetic acid, pH 2; B: methanol; gradient (min/%B) 0/40 20/72 21/40
Details: stereoisomer not certain
Kindly write the number and append the unit.

Respond only with LC retention time recorded for Oc1ccc(-c2[o+]c3cc(O)cc(O)c3cc2O)cc1
12.9 min

Name the recorded LC retention time of the item O=c1c(O)c(-c2ccc(O)c(O)c2)oc2cc(O)cc(O)c12 in your answer.
16.6 min

Query LC retention time for O=c1c(O)c(-c2cc(O)c(OS(=O)(=O)O)c(O)c2)oc2cc(O)cc(O)c12 [Myricetin 4-O-sulfate]
15.2 min

// fetch LC retention time given entry O=C1c2c(O)cc(O)cc2OC(c2ccc(O)c(O)c2)C1O (stereo not drawn)
7.73 min

# return recorded LC retention time for entry O=C(O)C=Cc1ccc(O)cc1O [2,4-Dihydroxycinnamic acid]
5.73 min

Quote LC retention time reported for COc1cc(C2Oc3c(O)cc(C4Oc5cc(O)cc(O)c5C(=O)C4O)cc3C2CO)ccc1O (stereo not drawn) please.
10.3 min

Find the measured LC retention time of O=C(O)C=Cc1ccc(O)cc1 and report it.
7.01 min

Tell us which LC retention time value is on record for O=c1c(OC2OC(CO)C(O)C(O)C2O)c(-c2ccc(O)c(O)c2)oc2cc(O)cc(O)c12 (stereo not drawn) [Quercetin-3-O-glucoside]
9.23 min

* * *

Record form. Attribute: LC retention time. Fill in for each entry.
Test: RP, Phenomenex Kinetex EVO C18, 100 × 2.1 mm, 2.6 µm, 40 °C, 0.4 mL/min, estimated dead time 0.55 min; A: water + 0.2% formic acid; B: acetonitrile + 0.2% formic acid; gradient (min/%B) 0/5 0.5/5 7/95 8/95 8.5/5 12/5
Settings: stereoisomer not certain
Kindly provide the numeric value in min only, without the unit symbol.

Using known records, supply LC retention time for O=C(O)C1OC(Oc2ccc3c(c2)oc(=O)c2ccccc23)C(O)C(O)C1O (stereo not given) [Urolithin B-3-O-glucuronide]
5.23

Supply recorded LC retention time for COc1cc(C=CC(=O)O)ccc1OC1OC(C(=O)O)C(O)C(O)C1O (stereo not given) [Ferulic acid-4-O-glucuronide] here.
3.62

Give the value of LC retention time reported for the following: O=C(O)CNC(=O)c1ccccc1 [Hippuric acid]
3.8

Identify LC retention time associated with the molecule CC=C1C(OC2OC(CO)C(O)C(O)C2O)OC=C(C(=O)OC)C1CC(=O)OCCc1ccc(O)c(O)c1 (stereo not given) [Oleuropein]
5.24

Supply LC retention time value. Item: O=C1CCC(Cc2ccc(O)c(OS(=O)(=O)O)c2)O1 (stereo not given) [5-(4'-Hydroxyphenyl)-gamma-valerolactone-3'-sulfate]
4.64

* * *

Test: RP, Waters ACQUITY UPLC BEH Shield RP18, 150 × 2.1 mm, 1.7 µm, 40 °C, 0.4 mL/min, estimated dead time 0.83 min; A: water + 0.1% formic acid, pH 3; B: acetonitrile + 0.1% formic acid, pH 3; gradient (min/%B) 0/0 30/50 31/100 37/100 37.1/0
Settings: stereoisomer not certain
Please use MET for LC retention time under 8 min and NOT MET for everything else, ties included.

Dear colleague, could you confirm whether LC retention time of COc1cc(CC2COC(c3ccc(O)c(OC)c3)C2CO)ccc1O (single isomer, unassigned; (+)) [(+)-Lariciresinol] falls below 8 min? Thanks.
NOT MET

Bench note: check whether CC1OC(OCC2OC(Oc3cc4c(O)cc(O)cc4[o+]c3-c3ccc(O)c(O)c3)C(O)C(O)C2O)C(O)C(O)C1O (stereo not drawn) [Cyanidin-3-O-rutinoside] shows LC retention time below 8 min
MET

I'd appreciate it if you could check whether C=C1C(=O)OC2C3C(COC(=O)C(=O)O)=CC(=O)C3=C(C)CC(OC(=O)Cc3ccc(O)cc3)C12 (stereo not drawn) [lactucopicrin-15-oxalate] has LC retention time smaller than 8 min.
NOT MET

Does COc1cc(C(=O)O)ccc1O have LC retention time strictly under 8 min?
MET

I wonder whether O=c1c(-c2ccc(O)cc2)coc2cc(O)cc(O)c12 has LC retention time below 8 min. Can you tell?
NOT MET

State whether 8 min exceeds LC retention time recorded for Cn1cnc2c1c(=O)[nH]c(=O)n2C .
MET

Would you kindly verify if LC retention time of Oc1ccc(C=Cc2cc(O)cc(O)c2)cc1 is strictly less than 8 min?
NOT MET

* * *

Test: RP, Agilent ZORBAX Eclipse XDB-C18, 100 × 2.1 mm, 1.8 µm, 50 °C, 0.4 mL/min, estimated dead time 0.55 min; A: water + 0.1% formic acid, pH 3; B: methanol + 0.1% formic acid, pH 3; gradient (min/%B) 0/2 10/100 14.5/100 14.51/2 16.5/2
Conditions: stereoisomer not certain
assay endpoint: LC retention time (min)
I only need the number, in min, no unit after it.

Using known records, supply LC retention time for O=c1oc2cc(O)ccc2c2ccc(O)cc12
5.95

Please supply the value of reported LC retention time for the item O=C(O)CCc1c[nH]c2ccccc12
5.54

For the molecule O=C([O-])CCc1ccccc1O [3-(2-Hydroxyphenyl)propionic acid] , give its reported LC retention time.
4.8

Return LC retention time (reported value) for this molecule: OCCc1ccc(O)c(O)c1 [Hydroxytyrosol]
2.44

Identify LC retention time associated with the molecule COc1cc(C(O)C(=O)O)ccc1O (centres undefined)
1.65

// Input: O=C(O)C=Cc1ccc(O)cc1 . Output its LC retention time only.
4.32

Return value of LC retention time for input Cn1c(=O)[nH]c2ncn(C)c2c1=O , no commentary.
2.93

State its LC retention time: O=C(C=Cc1ccc(O)c(O)c1)OC(Cc1ccc(O)c(O)c1)C(=O)O (centres undefined)
5.41

Return the recorded LC retention time value; entry: O=c1c(OS(=O)(=O)O)c(-c2ccc(O)c(O)c2)oc2cc(O)cc(O)c12 [Quercetin 3-O-sulfate]
5.84
